target-under-test: glucocorticoid receptor (Homo sapiens (Human))
Sequence (P04150 whole entry): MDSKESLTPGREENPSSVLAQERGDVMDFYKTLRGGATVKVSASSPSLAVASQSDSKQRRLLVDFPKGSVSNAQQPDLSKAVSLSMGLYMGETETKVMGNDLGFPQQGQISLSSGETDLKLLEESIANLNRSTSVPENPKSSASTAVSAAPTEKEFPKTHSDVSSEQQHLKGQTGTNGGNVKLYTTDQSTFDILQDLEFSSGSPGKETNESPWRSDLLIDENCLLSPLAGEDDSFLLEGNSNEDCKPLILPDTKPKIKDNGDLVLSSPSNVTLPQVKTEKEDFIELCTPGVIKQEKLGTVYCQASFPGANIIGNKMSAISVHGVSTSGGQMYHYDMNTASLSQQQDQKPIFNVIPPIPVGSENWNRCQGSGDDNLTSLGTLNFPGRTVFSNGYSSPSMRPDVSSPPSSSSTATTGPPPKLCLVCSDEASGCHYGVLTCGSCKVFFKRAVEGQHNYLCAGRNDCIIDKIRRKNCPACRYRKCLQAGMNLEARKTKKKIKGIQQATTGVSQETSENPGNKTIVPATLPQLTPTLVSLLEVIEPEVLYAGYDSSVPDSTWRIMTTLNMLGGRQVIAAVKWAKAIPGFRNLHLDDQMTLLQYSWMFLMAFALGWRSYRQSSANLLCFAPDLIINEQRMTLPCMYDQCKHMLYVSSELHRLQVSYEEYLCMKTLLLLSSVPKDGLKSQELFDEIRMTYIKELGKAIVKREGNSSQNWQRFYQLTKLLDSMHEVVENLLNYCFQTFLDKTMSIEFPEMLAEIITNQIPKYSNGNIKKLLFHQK
method-notes: HepG2 TAT assay: inhibition of dexamethasone-induced tyrosine aminotransferase (TAT) activity
test-context: HepG2 cells, challenge of 100 nM dexamethasone, 18-24 hr; IC50 converted to Ki by Cheng and Prusoff equation
Protocol: Glucocorticoid mediated activation of TAT occurs by transactivation of glucocorticoid response elements in the TAT promoter by glucocorticoid receptor-agonist complex. HepG2 cells were cultured using MEME media supplemented with 10% (v/v) foetal bovine serum; 2 mM L-glutamine and 1% (v/v) NEAA at 37° C., 5%/95% (v/v) CO2/air. Compounds were serially half log diluted in 100% (v/v) dimethylsulphoxide from a 10 mM stock. […]
outcome-measure: Ki (nM)

- molecule: "CCCn1ncc(S(=O)(=O)N2CC3CC(OC)(c4ccccc4)CC3(c3cc4cnn(-c5ccc(F)cc5)c4cc3C)C2)n1 (stereo not drawn)"
  measurement: 78
- molecule: "Cc1cc2c(cnn2-c2ccc(F)cc2)cc1[C@@]12CN(S(=O)(=O)c3cnn(C)n3)C[C@@H]1[C@H]2c1nc2ccccc2o1"
  measurement: 55
- molecule: "Cc1cc2c(cnn2-c2ccc(F)cc2)cc1[C@@]12CN(C(=O)c3ncccc3F)C[C@@H]1[C@H]2c1ccccc1 (stereo in doubt)"
  measurement: 20
- molecule: "CCOC1(c2ccccc2)CC2CN(S(=O)(=O)c3cnn(C)c3)CC2(c2cc3cnn(-c4ccc(F)cc4)c3cc2C)C1 (stereo not drawn)"
  measurement: 170
- molecule: "Cc1cc2c(cnn2-c2ccc(F)cc2)cc1C12CC(Oc3ccccc3)CC1CN(S(C)(=O)=O)C2 (stereo not drawn) [Example 38]"
  measurement: 97
- molecule: "Cc1cc2c(cnn2-c2ccc(F)cc2)cc1[C@@]12CN(C(=O)c3cccc(N4CCOCC4)c3)C[C@@H]1[C@H]2c1ccccc1 (stereo in doubt)"
  measurement: 15
- molecule: "Cc1cc2c(cnn2-c2ccc(F)cc2)cc1[C@]12CN(S(=O)(=O)c3cnn(C)n3)C[C@H]1[C@@H]2C(=O)NC1CCC1"
  measurement: 200
- molecule: "Cc1cc2c(cnn2-c2ccc(F)cc2)cc1[C@@]12CN(S(=O)(=O)NCC(C)C)C[C@@H]1[C@H]2c1ccccc1"
  measurement: 82
- molecule: "Cc1cc2c(cnn2-c2ccc(F)cc2)cc1[C@@]12CN(S(=O)(=O)C3CC3)C[C@@H]1[C@H]2c1ccccc1"
  measurement: 21

Where do these numbers come from? They come from patent US20250115583A1.
